# TEST_PROTOCOL: qHTS Assay for inhibitors of the human cytomegalovirus (HCMV); further: on the % scale 0 is the no-effect control and ±100 the full control effect
# RUN_CONDITIONS: HFF cells, HCMV-luciferase reporter, 72 h; at 57.5 µM; stronger effect = lower value
Hit rate of the full screen: of about 410,000 compounds, about 18,000 (4.4%) were called active. Another 7% or so got no clear call; they are omitted. This excerpt belongs to a sample that is enriched for actives.
Examples of molecules with documented activity change, negative = inhibition follow.
Use % as the unit, but write only the number.

• CCC[C@H]1[C@H](NCC2CCCCC2)CC[C@@]23CCCN2C(=O)CCC[C@@H]13 = -6.34
• COc1ccc(CCNC(=O)c2cc3cccc4c3n2CC(C)S4)c(OC)c1OC (stereo not given) = 0
• Oc1c(C(c2ccc(F)cc2)N2CCN(Cc3ccccc3)CC2)sc2nc(-c3ccco3)nn12 (stereo not given) = -3

Output activity change, negative = inhibition of "CCOc1ccc(Nc2nc3c(S(=O)(=O)c4cccc(Cl)c4)nnn3c3ccsc23)cc1" 16.8

Output activity change, negative = inhibition of "CCn1c2ccccc2c2cc(CN3CCN(Cc4cccc(Cl)c4)CC3)ccc21" -0.564
